From: ChEMBL document CHEMBL3988442

For each of the compounds below, state its Percent Effect.
Biological target: Tyrosyl-tRNA synthetase, putative (Trypanosoma cruzi (strain CL Brener))
Assay: Trypanosoma cruzi tyrosyl tRNA synthetase (TcYRS) _High Tyrosine SOP
Format: functional
Design: scale not given: in the data most compounds retested in dose-response had high values
Conditions: 30 µM
In your response, put the unit directly after the numeric value.

Incoming: Value lookup for Percent Effect; key = `Cc1cccc(CNC(=O)CNc2cc(CO)ccc2Cl)c1`
Outgoing: 4.25%

Incoming: Give its Percent Effect value. Item: Cn1nnc2cc(C(=O)N3CCCC3Cc3ccccc3)ccc21 (stereo unspecified)
Outgoing: 0%

Incoming: Query: Percent Effect; subject: `O=C(c1cccs1)N1C[C@H]2CC[C@@]3(N=C(c4ccccc4)NC3=O)[C@H]2C1`
Outgoing: 1.07%

Incoming: Given the compound `CSCC[C@H](NC(=O)Cn1ccc2c(Cl)cccc21)C(=O)O` , what is its reported Percent Effect?
Outgoing: 3.17%

Incoming: Field request: Percent Effect | item: `Cn1ccnc1CN1CCN(Cc2cc(C#N)ccc2F)CC1`
Outgoing: 5.94%

Incoming: Can you share its Percent Effect? I mean this compound: Cc1ccccc1S(=O)(=O)N1CCCCC1c1ccn[nH]1 (stereo unspecified)
Outgoing: 0%

Incoming: Which Percent Effect is listed for `COCCNC(=O)[C@H]1C[C@@H]2CCN(Cc3ccoc3)C[C@H]2O1` ?
Outgoing: 0%

Incoming: Returns the measured Percent Effect for the input compound. Input: `CC(=O)N1CCN(C(=O)c2cc(-n3cnnn3)ccc2Cl)CC1`
Outgoing: -2.13%

Incoming: Percent Effect lookup needed for `Cn1ccc2ccc(C(=O)N3CCN(C(=O)N4CCOCC4)CC3)cc21` , thanks.
Outgoing: 9.04%

Incoming: For the compound shown here, CCC(CC)C(CNC(=O)Nc1cc(C)nn1C)N1CCOCC1 (stereo unspecified) , give the reported Percent Effect.
Outgoing: 8.37%

Incoming: Suppose we examine the compound Cn1cc(CN2CCOCC3(C2)CN(c2ccccc2)C(=O)CO3)cn1 (stereo unspecified) ; what Percent Effect value has been reported?
Outgoing: 6.84%
